molecular target: EGFR (Homo sapiens, UniProt P00533); experiment: Inhibition of a panel of kinases, in vitro HotSpot kinase assay: EGFR; type: biochemical; details: D-compounds panel data; 1 μM ATP
Sequence (P00533 25-1210): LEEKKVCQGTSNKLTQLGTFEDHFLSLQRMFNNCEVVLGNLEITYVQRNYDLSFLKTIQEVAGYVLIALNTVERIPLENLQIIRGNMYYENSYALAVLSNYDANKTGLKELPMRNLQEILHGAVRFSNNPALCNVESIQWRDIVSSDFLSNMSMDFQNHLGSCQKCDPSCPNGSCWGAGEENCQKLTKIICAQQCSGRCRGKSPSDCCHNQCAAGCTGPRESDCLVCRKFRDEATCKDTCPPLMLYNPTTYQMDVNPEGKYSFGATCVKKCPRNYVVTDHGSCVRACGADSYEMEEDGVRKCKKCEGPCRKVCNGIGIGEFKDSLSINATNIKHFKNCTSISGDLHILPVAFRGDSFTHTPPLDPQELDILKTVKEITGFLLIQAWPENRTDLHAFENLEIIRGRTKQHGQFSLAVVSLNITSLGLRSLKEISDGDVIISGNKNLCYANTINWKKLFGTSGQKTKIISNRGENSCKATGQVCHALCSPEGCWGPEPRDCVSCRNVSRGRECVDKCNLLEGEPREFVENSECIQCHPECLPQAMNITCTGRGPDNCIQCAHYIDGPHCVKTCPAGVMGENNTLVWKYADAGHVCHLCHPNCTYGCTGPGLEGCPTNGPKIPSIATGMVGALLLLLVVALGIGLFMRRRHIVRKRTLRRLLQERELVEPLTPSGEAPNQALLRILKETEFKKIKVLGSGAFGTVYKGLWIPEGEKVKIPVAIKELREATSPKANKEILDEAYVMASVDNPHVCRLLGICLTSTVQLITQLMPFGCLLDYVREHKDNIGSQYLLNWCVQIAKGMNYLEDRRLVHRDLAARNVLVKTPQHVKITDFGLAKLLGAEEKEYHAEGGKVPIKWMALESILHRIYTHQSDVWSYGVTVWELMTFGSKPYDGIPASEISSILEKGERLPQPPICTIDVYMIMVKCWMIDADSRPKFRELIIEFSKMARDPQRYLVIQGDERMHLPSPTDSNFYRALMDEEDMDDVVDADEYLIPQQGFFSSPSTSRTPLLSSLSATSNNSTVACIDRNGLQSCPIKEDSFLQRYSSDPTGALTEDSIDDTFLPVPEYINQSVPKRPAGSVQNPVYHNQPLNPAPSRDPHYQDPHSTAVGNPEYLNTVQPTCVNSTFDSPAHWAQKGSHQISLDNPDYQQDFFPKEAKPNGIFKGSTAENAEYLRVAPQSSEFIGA
QUANTITY NAME: IC50

IN: State its IC50: `C[C@@H]1[C@H](NC(=O)C23CC(C2)C3)CCCN1c1cnc(C(N)=O)c(Nc2cnn(C)c2)n1`
OUT: 1000 to 10000 nM

IN: State its IC50: `Cn1cc(Nc2nc(N3CCC[C@@H](NC(=O)c4ccc(C5CC5)cc4)C3)cnc2C(N)=O)cn1`
OUT: > 10000 nM

IN: State its IC50: `C[C@@H]1[C@H](NC(=O)c2ccc3c(c2)CCC(C)(C)O3)CCCN1c1cnc(C(N)=O)c(Nc2cnn(C)c2)n1`
OUT: 1000 to 10000 nM

IN: State its IC50: `C[C@@H]1[C@H](NC(=O)c2ccc(C3CC3)nc2)CCCN1c1cnc(C(N)=O)c(Nc2ccc(OC3CCN(C)CC3)cc2)n1`
OUT: 100 to 1000 nM

IN: State its IC50: `C[C@@H]1[C@H](NC(=O)c2ccc(C3CC3)cn2)CCCN1c1cnc(C(N)=O)c(Nc2ccc(N3CCN(C)CC3)cc2)n1`
OUT: 100 to 1000 nM

IN: State its IC50: `Cc1cc(Nc2nc(N3CCC[C@@H](c4ncc(-c5ccccc5)[nH]4)C3)cnc2C(N)=O)sn1`
OUT: > 10000 nM

IN: State its IC50: Cn1cc(Nc2nc(N3CCC(NC(=O)c4ccc(C5CC5)cc4)C(O)C3)cnc2C(N)=O)cn1 (single isomer, unassigned) [Example D-28]
OUT: > 10000 nM

Attribution: patent US20210070748A1
